Data origin: patent US5495000A

Reported pIC50 by item:
Tested on: Fibrin-Clot
PROTOCOL: Fibrin-Clot Inhibition
Type: biochemical
pIC50: −log10 of the molar value. *1 amine or outer side, *2 acyl side, *3 side chain or, on linkers, in order; H or OH if unused. Where a SMILES comes first, the peptide text is derived from it. [ ]: non-standard residue; d: D form. Cha = N[C@@H](CC1CCCCC1)C(=O)O; Suc = O=C(CCC(=O)[*:2])[*:1]
PARAMETER MEASURED: pIC50

| COMPOUND | TARGET SYSTEM | EXPERIMENTAL RESULT |
| --- | --- | --- |
| CC[C@H](C)[C@H](NC(=O)[C@H](CC(=O)O)NC(=O)[C@H](CC(=O)O)NC(=O)[C@H](CC(C)C)NC(=O)[C@H](CO)NC(=O)[C@H](Cc1ccccc1)NC(=O)[C@@H]1CCCN1C(=O)[C@H](CCC(=O)O)NC(=O)[C@H](Cc1ccccc1)NC(=O)CCC(=O)O)C(=O)N[C@@H](CCC(=O)O)C(=O)N[C@@H](CCC(N)=O)C(=O)O [Example 5] (Suc-FEPFSLDDIEQ-OH) | Fibrin-Clot | 5.74 |
| CC(C)C[C@H](NC(=O)[C@H](CO)NC(=O)[C@H](Cc1ccccc1)NC(=O)[C@H](CCC(=O)O)NC(=O)[C@H](CCC(=O)O)NC(=O)[C@H](Cc1ccccc1)NC(=O)CCC(=O)O)C(=O)N[C@@H](CC(=O)O)C(=O)N[C@@H](CC(=O)O)C(=O)N[C@@H](CC1CCCCC1)C(=O)N[C@@H](CCC(=O)O)C(=O)N[C@@H](CCC(N)=O)C(=O)O [Example 7] (Suc-FEEFSLDD[Cha]EQ-OH) | Fibrin-Clot | 5.15 |
| CC[C@H](C)[C@H](NC(=O)[C@H](CC(=O)O)NC(=O)[C@H](CC(=O)O)NC(=O)[C@H](CC(C)C)NC(=O)[C@@H]1CCCN1C(=O)[C@@H](Cc1ccccc1)NC(=O)[C@H](CCC(=O)O)NC(=O)[C@H](CCC(=O)O)NC(=O)[C@H](Cc1ccccc1)NC(=O)CCC(=O)O)C(=O)N[C@@H](CCC(=O)O)C(=O)N[C@@H](CCC(N)=O)C(=O)O [Example 6] (Suc-FEE[dF]PLDDIEQ-OH) | Fibrin-Clot | 5.64 |
| CC[C@H](C)[C@H](NC(=O)[C@H](CC(=O)O)NC(=O)[C@H](CC(=O)O)NC(=O)[C@H](CC(C)C)NC(=O)[C@H](CO)NC(=O)[C@H](Cc1ccccc1)NC(=O)[C@H](CCC(=O)O)NC(=O)[C@H](CCC(=O)O)NC(=O)[C@H](Cc1ccccc1)NC(=O)CCC(=O)O)C(=O)N[C@@H](CCC(=O)O)C(=O)N[C@@H](CCC(N)=O)C(=O)O [Example 4] (Suc-FEEFSLDDIEQ-OH) | Fibrin-Clot | 5.57 |
